Each recorded value in this set is attributed to paper PMC5673977.

System: C. albicans opt1–opt5Δ
assay info: Initial peptide uptake rate
Type: cell-based, Candida albicans
measurement parameters: 50 mM potassium phosphate buffer (pH 5.0 or 6.5) + 1% glucose, 30°C, 100 μM peptide, TNBS A420, slope 0- to 10-min
Where a SMILES comes first, the peptide text is derived from it.

| compound | Uptake rate ± SD |
| --- | --- |
| CC(C)[C@H](NC(=O)[C@H](Cc1c[nH]c2ccccc12)NC(=O)[C@H](Cc1ccccc1)NC(=O)[C@@H](NC(=O)[C@@H](NC(=O)[C@H](CCCCN)NC(=O)[C@@H](N)CCCCN)C(C)C)C(C)C)C(=O)N[C@@H](CCCCN)C(=O)N[C@@H](Cc1ccccc1)C(=O)N[C@@H](CCCCN)C(=O)O [Peptide P10, Lys-Lys-Val-Val-Phe-Trp-Val-Lys-Phe-Lys] (H-KKVVFWVKFK-OH) | <0.1 nmol min^-1 (mg dry weight)^-1 |

###

System: C. albicans opt1–opt5Δ
Type: cell-based, Candida albicans
measurement parameters: YNB-AS medium, 37°C, 24 h, turbidity 531 nm, at least 80% decrease
Where a SMILES comes first, the peptide text is derived from it. [ ]: non-standard residue; d: D form. The star is where a group is joined. Fumaryl(OMe) = COC(=O)/C=C/C(=O)*; Dap = NC[C@H](N)C(=O)O
Recorded MIC by entry

| molecule | MIC |
| --- | --- |
| COC(=O)/C=C/C(=O)NC[C@H](N)C(=O)N[C@@H](CCCCN)C(=O)N[C@@H](CCCCN)C(=O)N[C@H](C(=O)N[C@H](C(=O)N[C@@H](Cc1ccccc1)C(=O)N[C@@H](Cc1c[nH]c2ccccc12)C(=O)N[C@H](C(=O)N[C@@H](CCCCN)C(=O)N[C@@H](Cc1ccccc1)C(=O)N[C@@H](CCCCN)C(=O)O)C(C)C)C(C)C)C(C)C [Peptide F11] (H-[Dap](Fumaryl(OMe))KKVVFWVKFK-OH; N-terminus assumed) | >128 µg/mL |
| COC(=O)/C=C/C(=O)NC[C@H](N)C(=O)N[C@@H](CCCNC(=N)N)C(=O)N[C@@H](CCCCN)C(=O)N[C@@H](CCCCN)C(=O)N[C@@H](Cc1c[nH]c2ccccc12)C(=O)N[C@@H](Cc1ccccc1)C(=O)N[C@@H](Cc1c[nH]c2ccccc12)C(=O)O [Peptide F7, FMDP-Arg-Lys-Lys-Trp-Phe-Trp] (H-[Dap](Fumaryl(OMe))RKKWFW-OH; N-terminus and C-terminus assumed) | >128 µg/mL |
| CC(C)[C@H](NC(=O)[C@H](Cc1c[nH]c2ccccc12)NC(=O)[C@H](Cc1ccccc1)NC(=O)[C@@H](NC(=O)[C@@H](NC(=O)[C@H](CCCCN)NC(=O)[C@@H](N)CCCCN)C(C)C)C(C)C)C(=O)N[C@@H](CCCCN)C(=O)N[C@@H](Cc1ccccc1)C(=O)N[C@@H](CCCCN)C(=O)O [Peptide P10, Lys-Lys-Val-Val-Phe-Trp-Val-Lys-Phe-Lys] (H-KKVVFWVKFK-OH) | 64 µg/mL |
| COC(=O)/C=C/C(=O)NC[C@H](NC(=O)[C@H](CCSC)NC(=O)[C@@H](NC(=O)[C@@H]1CCCN1C(=O)[C@H](CC(C)C)NC(=O)[C@@H](N)CCCCN)C(C)C)C(=O)O [Peptide F6, Lys-Leu-Pro-Val-Met-FMDP] (H-KLPVM[Dap](Fumaryl(OMe))-OH; N-terminus and C-terminus assumed) | >128 µg/mL |
